# Protocol description: NCI Yeast Anticancer Drug Screen. Data for the wt2 strain (AID 169);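 note: 0% = growth of vehicle-treated yeast cultures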
# Measurement conditions: S. cerevisiae wt2 strain growth inhibition; at 11.0 µM; hits give high values
This is part of a sample that, as a whole, favours compounds with a hit. Of some 79,000 tested, about 15% had one in any assay.
Readout kind: growth inhibition (%)
Entry rule: numbers only, all in %.

These solved cases illustrate the format of a correct answer.
C[C@]12CC[C@H](O)CC1=CC[C@@H]1C2CC[C@]2(C)C(=O)NC(=O)CC12 (stereo partly specified) | 78
Cc1ccc2nc(-c3cccc([N+](=O)[O-])c3)oc(=O)c2c1 | -26
COc1cc(/C=N/Nc2nnc3c4ccccc4c4ncccc4c3n2)cc(OC)c1OC | -2

Input: For the compound Cc1cc2c3ccccc3c3ccccc3c2nn1 , what growth inhibition is on record?
Output: -3

Input: For the compound CN(C)CCCCN1c2ccccc2Sc2ccc(N=[N+]=[N-])cc21 , what growth inhibition is on record?
Output: -14

Input: For the compound Oc1[nH]c2ccccc2c1N=NC(=S)N1CCCCC1 , what growth inhibition is on record?
Output: 13
